Hi, quick share: literature log10 of Ki data for Melanocyte-stimulating hormone receptor (Homo sapiens), several sources combined.
Result type: log10 of Ki (log10 of the value in nM)

# Compound, log10 of Ki
data = [
    ("N=C(N)NCCC[C@H](NC(=O)[C@H](Cc1ccccc1)NC(=O)[C@H](Cc1c[nH]cn1)NC(=O)C(O)Cc1ccccc1)C(=O)N[C@@H](Cc1c[nH]c2ccccc12)C(N)=O (stereo partly specified)", 1.06),
    ("CNC(=O)[C@H](Cc1ccc2ccccc2c1)N1CCN(C(=O)[C@@H](Cc2ccc(F)cc2)NC(=O)[C@H](Cc2ccc(O)cc2)NC(C)=O)[C@@H](CCCN=C(N)N)C1=O", 1.15),
    ("C[C@H]1NC(=O)c2cc(C(=N)N)ccc2SC[C@@H](C(N)=O)NC(=O)[C@H](Cc2c[nH]c3ccccc23)NC(=O)[C@H](CCCNC(=N)N)NC(=O)[C@@H](Cc2ccccc2)NC(=O)[C@H](Cc2c[nH]cn2)NC1=O", 0.55),
    ("C[C@@H]1NC(=O)[C@H](Cc2c[nH]c3ccccc23)NC(=O)[C@H](CCCNC(=N)N)NC(=O)[C@@H](Cc2ccccc2)NC(=O)[C@H](Cc2c[nH]cn2)NC(=O)c2cc([N+](=O)[O-])ccc2SC[C@@H](C(N)=O)NC1=O", 0.10),
    ("CC(=O)N[C@@H](Cc1ccccc1)C(=O)N[C@H](Cc1ccccc1)C(=O)N1C[C@H](OCc2ccc3ccccc3c2)C[C@@H]1CCCN=C(N)N", 2.26),
    ("CC(=O)N[C@@H](Cc1ccc(O)cc1)C(=O)N[C@@H](CCCNC(N)=O)C(=O)N[C@H]1CSSC[C@@H](C(N)=O)NC(=O)[C@H](Cc2c[nH]c3ccccc23)NC(=O)[C@H](CCCNC(=N)N)NC(=O)[C@@H](Cc2ccccc2)NC(=O)[C@H](Cc2c[nH]cn2)NC(=O)[C@H](CCC(=O)O)NC1=O", 1.69),
]

* * *

Listed below are molecules with Ki for UniProt Q01726, each taken from published literature.
The threshold is 1000 nM. Values of Ki beneath it are tagged TRUE; values meeting or exceeding it are tagged FALSE.

# Smiles text, Answer label
measured = [
    ("CNC(=O)[C@H](Cc1ccc2ccccc2c1)N1CCN(C(=O)CCc2ccc(F)cc2)[C@@H](CCCN=C(N)N)C1=O", "TRUE"),
    ("CNC(=O)[C@H](Cc1ccc2ccccc2c1)NC(=O)[C@H](CCCN=C(N)N)NC(=O)[C@H](N)Cc1ccccc1", "FALSE"),
    ("CC(=O)N[C@@H](Cc1ccc(O)cc1)C(=O)N[C@@H](CCCNC(=N)N)C(=O)N[C@H]1CSSC[C@@H](C(N)=O)NC(=O)[C@H](Cc2c[nH]c3ccccc23)NC(=O)[C@H](CCCNC(=N)N)NC(=O)[C@@H](Cc2ccc(F)cc2)NC(=O)[C@H](Cc2c[nH]cn2)NC(=O)[C@H](CCC(=O)O)NC1=O", "TRUE"),
    ("NC(=O)C[C@H](N)C(=O)N[C@H](Cc1ccccc1)C(=O)N1C[C@@H](OCc2ccc3ccccc3c2)C[C@@H]1CCCN=C(N)N", "TRUE"),
    ("COCC(=O)N[C@H]1Cc2cc3c(c(c2)Cc2ccc(cc2)Oc2cccc(c2)CN(CCCN2CCN(CCCN)CC2)C1=O)OCOC3", "TRUE"),
]
